Diaphania indica Mortality (%) for assorted compounds
# System: Cucumber Moth (Diaphania indica)
# ASSAY: Insecticidal test on cucumber moth, sprayed cucumber leaves, mortality
# Type: in vivo
# PROTOCOL_CONDITIONS: 10 ppm
Give just the numeric value; % need not be written.

Consider the reported Diaphania indica Mortality (%) for these compounds:
O=C(Nc1cccc(C(=O)Nc2c(Br)cc(C(F)(C(F)(F)F)C(F)(F)F)cc2SC(F)(F)F)c1)c1ccccc1    95
Cc1cc(C(F)(C(F)(F)F)C(F)(F)F)cc(C)c1NC(=O)c1cccc(N(C)C(=O)c2ccccc2)c1F    95
Cc1cc(C(F)(C(F)(F)F)C(F)(F)F)cc(C)c1NC(=O)c1cccc(N(C)C(=O)c2cccnc2Cl)c1F    90

Return reported Diaphania indica Mortality (%); argument: `CCCc1cc(C(F)(C(F)(F)F)C(F)(F)F)cc(Br)c1NC(=O)c1cccc(NC(=O)c2ccccc2)c1`
90

Return reported Diaphania indica Mortality (%); argument: `Cc1cc(C(F)(C(F)(F)F)C(F)(F)F)cc(C)c1NC(=O)c1cccc(NC(=O)c2ccccc2)c1F`
95

----------
# System: Common Straight Swift Butterfly (Parnara guttata)
# ASSAY: Control test on common straight swift butterfly of paddy rice, powder spray, number of insects after 20 days (Test Example 8)
# Type: in vivo
# PROTOCOL_CONDITIONS: 20 gai/10a; 20 days after spraying
OBSERVATION_TYPE: Number (insects/100 stumps)
Give just the numeric value; insects/100 stumps need not be written.

Cc1cc(C(F)(C(F)(F)F)C(F)(F)F)cc(C)c1NC(=O)c1cccc(N(C)C(=O)c2ccccc2)c1F [Compound 1208]    1
Cc1cc(C(F)(C(F)(F)F)C(F)(F)F)cc(C)c1NC(=O)c1cccc(NC(=O)c2ccccc2)c1F [Compound No. 601]    1

Return reported Number (insects/100 stumps); argument: Cc1cc(C(F)(C(F)(F)F)C(F)(F)F)cc(C)c1NC(=O)c1cccc(N(C)C(=O)c2cccnc2Cl)c1F [Compound 1245]
2

Return reported Number (insects/100 stumps); argument: O=C(Nc1cccc(C(=O)Nc2c(Br)cc(C(F)(C(F)(F)F)C(F)(F)F)cc2SC(F)(F)F)c1)c1ccccc1 [Compound 210]
1

----------
# Test system: Tiger Moth (Trichoplusia ni)
# ASSAY: Insecticidal test on tiger moth, cabbage leaf dip, mortality after 6 days
# Format: in vivo
# PROTOCOL_CONDITIONS: 0.5 ppm; 6 days after treatment
OBSERVATION_TYPE: Mortality (%)
Give just the numeric value; % need not be written.

Consider the reported Mortality (%) for these compounds:
Cc1cc(C(F)(C(F)(F)F)C(F)(F)F)cc(C)c1NC(=O)c1cccc(N(C)C(=O)c2ccc(Cl)nc2)c1F    65
Cc1cc(C(F)(C(F)(F)F)C(F)(F)F)cc(C)c1NC(=O)c1cccc(N(C)C(=O)c2ccc(C#N)cc2)c1F    65

Return reported Mortality (%); argument: `CN(C(=O)c1ccccc1)c1cccc(C(=O)Nc2c(Br)cc(SC(F)(F)C(F)(F)C(F)(F)F)cc2Br)c1`
70

Return reported Mortality (%); argument: `O=C(Nc1cccc(C(=O)Nc2c(Br)cc(C(F)(C(F)(F)F)C(F)(F)F)cc2SC(F)(F)F)c1)c1ccccc1`
70

Return reported Mortality (%); argument: `Cc1cc(C(F)(C(F)(F)F)C(F)(F)F)cc(C)c1NC(=O)c1cccc(N(C)C(=O)c2cccnc2Cl)c1F`
70

Return reported Mortality (%); argument: `CN(C(=O)c1cccc(NC(=O)c2ccccc2)c1)c1c(Br)cc(SC(F)(F)C(F)(F)C(F)(F)F)cc1Br`
75

Return reported Mortality (%); argument: `CN(C(=O)c1ccccc1F)c1cccc(C(=O)N(C)c2c(Br)cc(SC(F)(F)C(F)(F)C(F)(F)F)cc2Br)c1`
75

Return reported Mortality (%); argument: `Cc1cc(C(F)(C(F)(F)F)C(F)(F)F)cc(C)c1NC(=O)c1cccc(N(C)C(=O)c2ccccc2)c1F`
75

Return reported Mortality (%); argument: `Cc1cc(C(F)(C(F)(F)F)C(F)(F)F)cc(C)c1NC(=O)c1cccc(N(C)C(=O)c2cccc(F)c2)c1F`
65

Return reported Mortality (%); argument: `Cc1cc(C(F)(C(F)(F)F)C(F)(F)F)cc(C)c1NC(=O)c1cccc(NC(=O)c2cccnc2Cl)c1F`
80

----------
# Tested on: Small Brown Planthopper (Laodelphax striatellus)
# ASSAY: Insecticidal test on small brown planthopper, sprayed rice seedlings, mortality after 6 days
# Type: in vivo
# PROTOCOL_CONDITIONS: 3 ppm, sprayed rice seedlings, 6 days after treatment
Mortality (%) for assorted molecules
Give just the numeric value; % need not be written.

O=C(Nc1cccc(C(=O)Nc2c(Br)cc(C(F)(C(F)(F)F)C(F)(F)F)cc2SC(F)(F)F)c1)c1ccccc1    15
Cc1cc(C(F)(C(F)(F)F)C(F)(F)F)cc(C)c1NC(=O)c1cccc(N(C)C(=O)c2ccc(C#N)cc2)c1F    15
Cc1cc(C(F)(C(F)(F)F)C(F)(F)F)cc(C)c1NC(=O)c1cccc(NC(=O)c2cccnc2Cl)c1F    0
Cc1cc(C(F)(C(F)(F)F)C(F)(F)F)cc(C)c1NC(=O)c1cccc(N(C)C(=O)c2ccccc2)c1F    10
Cc1cc(C(F)(C(F)(F)F)C(F)(F)F)cc(C)c1NC(=O)c1cccc(N(C)C(=O)c2cccc(F)c2)c1F    10
Cc1cc(C(F)(C(F)(F)F)C(F)(F)F)cc(C)c1NC(=O)c1cccc(N(C)C(=O)c2cccnc2Cl)c1F    5

Return reported Mortality (%); argument: `CN(C(=O)c1ccccc1F)c1cccc(C(=O)N(C)c2c(Br)cc(SC(F)(F)C(F)(F)C(F)(F)F)cc2Br)c1`
5

Return reported Mortality (%); argument: `Cc1cc(C(F)(C(F)(F)F)C(F)(F)F)cc(C)c1NC(=O)c1cccc(N(C)C(=O)c2ccc(Cl)nc2)c1F`
5

Return reported Mortality (%); argument: `CN(C(=O)c1cccc(NC(=O)c2ccccc2)c1)c1c(Br)cc(SC(F)(F)C(F)(F)C(F)(F)F)cc1Br`
10

Return reported Mortality (%); argument: `CN(C(=O)c1ccccc1)c1cccc(C(=O)Nc2c(Br)cc(SC(F)(F)C(F)(F)C(F)(F)F)cc2Br)c1`
10

----------
# Tested on: Rice Leafroller (Cnaphalocrocis medinalis)
# ASSAY: Control test on rice leafroller, nursery box application of paddy rice, infected leaf rate after 50 days
# Assay type: in vivo
# PROTOCOL_CONDITIONS: 5 gai/box; 50 days after transplantation
OBSERVATION_TYPE: Cnaphalocrocis medinalis Infected leaf rate (%)
Give just the numeric value; % need not be written.

Cc1cc(C(F)(C(F)(F)F)C(F)(F)F)cc(C)c1NC(=O)c1cccc(NC(=O)c2cccnc2Cl)c1F    0.39

Entry `Cc1cc(C(F)(C(F)(F)F)C(F)(F)F)cc(C)c1NC(=O)c1cccc(N(C)C(=O)c2cccnc2)c1F` , system Rice Leafroller (Cnaphalocrocis medinalis): what Cnaphalocrocis medinalis Infected leaf rate (%) was measured?
0.25

Entry `Cc1cc(C(F)(C(F)(F)F)C(F)(F)F)cc(C)c1NC(=O)c1cccc(N(C)C(=O)c2cccnc2Cl)c1F` , system Rice Leafroller (Cnaphalocrocis medinalis): what Cnaphalocrocis medinalis Infected leaf rate (%) was measured?
0.32

Entry `Cc1cc(C(F)(C(F)(F)F)C(F)(F)F)cc(C)c1NC(=O)c1cccc(N(C)C(=O)c2cccnc2F)c1F` , system Rice Leafroller (Cnaphalocrocis medinalis): what Cnaphalocrocis medinalis Infected leaf rate (%) was measured?
0.28

Entry `Cc1cc(C(F)(C(F)(F)F)C(F)(F)F)cc(C)c1NC(=O)c1cccc(N(C)C(=O)c2ccc(Cl)nc2)c1F` , system Rice Leafroller (Cnaphalocrocis medinalis): what Cnaphalocrocis medinalis Infected leaf rate (%) was measured?
0.25

----------
Agrotis segetum Infected stump rate (%) for assorted compounds
# Test system: Turnip Moth (Agrotis segetum)
# ASSAY: Control test on turnip moth of cabbage, soil treatment, rate of infected stumps after 7 days
# Assay type: in vivo
# PROTOCOL_CONDITIONS: 100 gai/10a; 7 days after treatment
# Experimental: Control Test on Turnip Moth (Agrotis segetum) and Clubroot (Plasmodiophora brassicae) of Cabbage due to Soil Treatment A powder in a prescribed amount was mixed to soil and cabbages (cultivar: shiki-kaku) cultured on a cell medium were planted out. After 7 days from the treatment, the number of infected stumps due to Agrotis segetum was examined and the rate of infected stumps was calculated. […]
Give just the numeric value; % need not be written.

Cc1cc(C(F)(C(F)(F)F)C(F)(F)F)cc(C)c1NC(=O)c1cccc(NC(=O)c2ccccc2)c1F [Compound No. 601]    2.8

Return reported Agrotis segetum Infected stump rate (%); argument: CCCc1cc(C(F)(C(F)(F)F)C(F)(F)F)cc(Br)c1NC(=O)c1cccc(NC(=O)c2ccccc2)c1 [Compound 178]
5.6

Return reported Agrotis segetum Infected stump rate (%); argument: O=C(Nc1cccc(C(=O)Nc2c(Br)cc(C(F)(C(F)(F)F)C(F)(F)F)cc2SC(F)(F)F)c1)c1ccccc1 [Compound 210]
2.8

Return reported Agrotis segetum Infected stump rate (%); argument: Cc1cc(C(F)(C(F)(F)F)C(F)(F)F)cc(C)c1NC(=O)c1cccc(N(C)C(=O)c2cccnc2Cl)c1F [Compound 1245]
2.8

Return reported Agrotis segetum Infected stump rate (%); argument: Cc1cc(C(F)(C(F)(F)F)C(F)(F)F)cc(C)c1NC(=O)c1cccc(N(C)C(=O)c2ccccc2)c1F [Compound 1208]
2.8
